target: HLA-B*58:01; test: IEDB peptide-MHC binding, purified MHC/direct/fluorescence; filed as Kd, often an IC50 or EC50 that approximates it; bounds were set here for any values at or beyond the usual limits of such assays; conditions: source organism: Bacillus anthracis
pKd: −log10 of the molar value.
testReadout: pKd

API: value(readout=pKd, system=HLA-B*58:01) for record `DTVLFNAGL`
≤ 4.70

---

biological target: HLA-A*02:01; test: IEDB peptide-MHC binding, purified MHC/direct/fluorescence; filed as Kd, often an IC50 or EC50 that approximates it; bounds were set here for any values at or beyond the usual limits of such assays; settings: source organism: Salmonella enterica subsp. enterica serovar Typhimurium
What pKd was measured for each of the following?
Answers are plain numbers, as −log10 of the molar value.

>>> datavalue("MMLAQAYYG")
6.56

Attention now turns to another entry.
Returns the measured pKd for the input sequence. Input: `YLGPTIRVW`
5.73

---

molecular target: HLA-A*02:12; test: IEDB peptide-MHC binding, purified MHC/direct/fluorescence; filed as Kd, often an IC50 or EC50 that approximates it; bounds were set here for any values at or beyond the usual limits of such assays; settings: source organism: Rickettsia bellii OSU 85-389
testReadout: Kd

Look up Kd for this sequence: `AKIALAVYK`
≥ 20 µM

---

target: HLA-A*32:15; experiment: IEDB peptide-MHC binding, purified MHC/competitive/fluorescence; filed as Kd, often an IC50 or EC50 that approximates it; bounds were set here for any values at or beyond the usual limits of such assays; conditions: source organism: Entamoeba histolytica HM-1:IMSS
testReadout: pKd
Numbers only, as −log10 of the molar value.

Any idea what pKd was measured for `SMFERDFHF` ?
7.50

---

biological target: HLA-C*15:02; experiment: IEDB peptide-MHC binding, purified MHC/direct/fluorescence; filed as Kd, often an IC50 or EC50 that approximates it; bounds were set here for any values at or beyond the usual limits of such assays; details: source organism: Yellow fever virus
testReadout: pKd
Answers are plain numbers, as −log10 of the molar value.

Record request: pKd value, item `YVIRDLAAM`
6.56

---

target: HLA-A*69:01; assay: IEDB peptide-MHC binding, purified MHC/direct/fluorescence; filed as Kd, often an IC50 or EC50 that approximates it; bounds were set here for any values at or beyond the usual limits of such assays; conditions: source organism: Salmonella enterica
pKd: −log10 of the molar value.
Answer each item with its documented pKd.

>>> datavalue("VPQTDAGVT")
"≤ 4.70"

Would you kindly share the measured pKd for `FPASHMATY` ?
≤ 4.70

---

target: HLA-A*02:19; test: IEDB peptide-MHC binding, purified MHC/direct/fluorescence; filed as Kd, often an IC50 or EC50 that approximates it; bounds were set here for any values at or beyond the usual limits of such assays; settings: source organism: Rickettsia bellii OSU 85-389
pKd: −log10 of the molar value.
testReadout: pKd

Value lookup for pKd; key = `AKIALAVYK`
≤ 4.70

---

Hi there, I'd appreciate the recorded pKd for every entry that follows.
molecular target: HLA-A*31:01; assay: IEDB peptide-MHC binding, purified MHC/competitive/radioactivity; filed as Kd, often an IC50 or EC50 that approximates it; bounds were set here for any values at or beyond the usual limits of such assays; conditions: source organism: Vaccinia virus WR
Numbers only, as −log10 of the molar value.

>>> datavalue("WLHECTDESR")
5.21
>>> datavalue("AVLSAATETY")
4.98
>>> datavalue("ESRPFDLIKK")
6.59
>>> datavalue("TILEYLYIMR")
6.01
>>> datavalue("TIEILRNYLR")
7.68

Count: 3. Required value per item: pKd.
1. MMNRDKIPIY
2. ISFKSINKVY
3. TISSESLVY

4.98
5.00
4.99

Could you report pKd for every entry in the following list?
1. LFLLFLEITY
2. DSLLITNTK
3. MMFINSTCY
4. ETFKIDAVR
5. QFANVISKIY

[5.46, 4.73, 6.89, 6.97, 5.94]

Each sequence below has a recorded value; state its pKd.
1. FSNTIQSYK
2. LTNKHCLNNY
3. NIVTFINDY

[7.11, 5.35, 4.84]

---

target: HLA-B*07:02; assay: IEDB peptide-MHC binding, purified MHC/direct/fluorescence; filed as Kd, often an IC50 or EC50 that approximates it; bounds were set here for any values at or beyond the usual limits of such assays; conditions: source organism: Influenza A virus (A/swine/Hong Kong/273/1994(H1N1))
pKd: −log10 of the molar value.
testReadout: pKd

So what's the measured pKd for this one? `GMFNMLSTV`
≤ 4.70

---

molecular target: HLA-A*01:01; assay: IEDB peptide-MHC binding, purified MHC/competitive/fluorescence; filed as Kd, often an IC50 or EC50 that approximates it; bounds were set here for any values at or beyond the usual limits of such assays; conditions: source organism: Human immunodeficiency virus 1
testReadout: Kd (nM)
One number for each entry, in nM.

>>> datavalue("RSLFNTIATLY")
1250
>>> datavalue("GTEEIKSLY")
13.8

Quick check: Kd of `KSLFNTIATLY` ?
1020

---

target: HLA-A*02:12; experiment: IEDB peptide-MHC binding, purified MHC/direct/fluorescence; filed as Kd, often an IC50 or EC50 that approximates it; bounds were set here for any values at or beyond the usual limits of such assays; conditions: source organism: Brucella melitensis bv. 1 str. 16M
testReadout: Kd

Given `TTRAVNMEV` , state its recorded Kd.
≥ 20 µM

---

molecular target: HLA-A*02:03; assay: IEDB peptide-MHC binding, purified MHC/competitive/radioactivity; filed as Kd, often an IC50 or EC50 that approximates it; bounds were set here for any values at or beyond the usual limits of such assays; details: source organism: Dengue virus 1 Singapore/S275/1990
testReadout: pKd
Answers are plain numbers, as −log10 of the molar value.

Fill in the recorded pKd for this sequence, with HLA-A*02:03 as test system: `KLTLKGMSYV`
7.27

---

target: HLA-B*40:01; test: IEDB peptide-MHC binding, purified MHC/direct/fluorescence; filed as Kd, often an IC50 or EC50 that approximates it; bounds were set here for any values at or beyond the usual limits of such assays; conditions: source organism: Pseudomonas aeruginosa
testReadout: Kd

>>> datavalue("LPQTRWQAV")
"≥ 20 µM"

Here's the next entry for you.
Which measured Kd value corresponds to `VVAVGGLAI` ?
≥ 20 µM

---

biological target: HLA-B*51:01; assay: IEDB peptide-MHC binding, purified MHC/direct/fluorescence; filed as Kd, often an IC50 or EC50 that approximates it; bounds were set here for any values at or beyond the usual limits of such assays; settings: source organism: Vibrio parahaemolyticus AQ3810
pKd: −log10 of the molar value.
testReadout: pKd

Give the measured pKd of `EASTWLDIF` .
≤ 4.70

---

Exercise: for every item that follows, state its recorded pKd.
molecular target: HLA-A*11:01; experiment: IEDB peptide-MHC binding, purified MHC/direct/fluorescence; filed as Kd, often an IC50 or EC50 that approximates it; bounds were set here for any values at or beyond the usual limits of such assays; conditions: source organism: Mycobacterium tuberculosis
pKd: −log10 of the molar value.

>>> datavalue("VPRDRNGTF")
"≤ 4.70"

# batch: return pKd for each of the 3 sequences below
1. RGRIGRTYL
2. IPAPGLGAL
3. AVFDSFVER

≤ 4.70
≤ 4.70
8.05

Hi! What's the reported pKd for `RIRSERPAF` on HLA-A*11:01?
≤ 4.70

---

Kindly state Kd for each of the entries shown.
target: HLA-B*57:01; test: IEDB peptide-MHC binding, purified MHC/competitive/radioactivity; filed as Kd, often an IC50 or EC50 that approximates it; bounds were set here for any values at or beyond the usual limits of such assays; details: source organism: Dengue virus 3 Martinique/1243/1999
The reply should read as a number followed by its unit.

>>> datavalue("LTSRENLLLG")
"541 nM"

I would be grateful if you could share the reported Kd for `LATAIAGAW` .
7.19 nM

---

molecular target: HLA-C*15:02; assay: IEDB peptide-MHC binding, purified MHC/direct/fluorescence; filed as Kd, often an IC50 or EC50 that approximates it; bounds were set here for any values at or beyond the usual limits of such assays; settings: source organism: Shigella flexneri 5 str. 8401
testReadout: Kd

# lookup: Kd of `KVHLTPAQL`
≥ 20 µM

---

For each record, write down the corresponding Kd.
biological target: HLA-B*44:03; test: IEDB peptide-MHC binding, purified MHC/competitive/radioactivity; filed as Kd, often an IC50 or EC50 that approximates it; bounds were set here for any values at or beyond the usual limits of such assays; conditions: source organism: Dengue virus 2 Jamaica/1409/1983
Kindly report the value followed by its unit.

>>> datavalue("SEMGANFKA")
"0.136 µM"

The following sequences each have a reported value; give each one's Kd.
1. TEMGRLPTF
2. AEMEEALRG

["0.024 µM", "0.0132 µM"]
